- STUDY SYSTEM: human EGFR (L858R/C797S) (Homo sapiens, UniProt P00533, C797S/L858R)
- Construct: purchased SignalChem
- Sequence (P00533 25-1210 C797S/L858R): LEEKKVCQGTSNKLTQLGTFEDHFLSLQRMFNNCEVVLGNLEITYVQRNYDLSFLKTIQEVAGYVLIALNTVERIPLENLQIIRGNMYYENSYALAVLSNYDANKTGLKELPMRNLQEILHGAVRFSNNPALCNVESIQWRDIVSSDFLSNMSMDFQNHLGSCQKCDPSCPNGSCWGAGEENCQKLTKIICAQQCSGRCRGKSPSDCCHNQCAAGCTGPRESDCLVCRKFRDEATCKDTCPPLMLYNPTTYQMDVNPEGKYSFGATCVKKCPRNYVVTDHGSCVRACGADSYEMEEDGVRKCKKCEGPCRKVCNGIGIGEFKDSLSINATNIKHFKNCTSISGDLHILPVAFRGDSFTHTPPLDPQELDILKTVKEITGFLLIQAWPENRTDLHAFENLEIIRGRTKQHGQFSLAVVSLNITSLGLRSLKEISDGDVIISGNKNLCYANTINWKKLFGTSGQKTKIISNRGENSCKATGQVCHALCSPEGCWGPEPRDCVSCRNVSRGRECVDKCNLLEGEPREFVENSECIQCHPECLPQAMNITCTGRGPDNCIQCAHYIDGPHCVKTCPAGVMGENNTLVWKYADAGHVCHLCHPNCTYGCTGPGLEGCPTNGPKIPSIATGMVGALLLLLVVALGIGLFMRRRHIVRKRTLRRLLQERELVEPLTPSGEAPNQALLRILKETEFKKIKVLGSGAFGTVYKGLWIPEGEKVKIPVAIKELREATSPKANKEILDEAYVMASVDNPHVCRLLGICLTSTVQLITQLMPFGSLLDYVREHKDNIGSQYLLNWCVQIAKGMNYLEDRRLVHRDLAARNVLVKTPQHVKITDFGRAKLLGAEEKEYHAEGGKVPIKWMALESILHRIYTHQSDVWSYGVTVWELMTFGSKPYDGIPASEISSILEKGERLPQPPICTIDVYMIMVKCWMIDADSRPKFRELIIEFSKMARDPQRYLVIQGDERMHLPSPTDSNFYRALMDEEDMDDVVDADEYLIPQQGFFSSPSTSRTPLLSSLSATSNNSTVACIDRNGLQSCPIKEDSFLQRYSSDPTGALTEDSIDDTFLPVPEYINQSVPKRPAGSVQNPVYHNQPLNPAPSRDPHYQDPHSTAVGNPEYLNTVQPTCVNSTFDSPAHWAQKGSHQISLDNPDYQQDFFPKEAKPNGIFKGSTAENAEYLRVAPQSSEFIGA
- ASSAY TEXT: Inhibitory activity against EGFR (L858R/C797S) kinase
- Type: biochemical
- EXPERIMENTAL SETUP: Test Example 1, Table 5; ATP 4 μM, 90 minutes
REPORTED PROPERTY: IC50 (nM)

Take a look at these entries with their results.
- C#Cc1c(-c2cnc3ccccc3c2)c2c(N)ncnc2n1C12CCC(NC(=O)c3cnccc3OC)(CC1)C2 [Example 31]: 0.62
- C#Cc1c(-c2cnc3ccccc3c2)c2c(N)ncnc2n1C12CCC(NC(=O)c3cccnn3)(CC1)C2 [Example 49]: 0.63
- C#Cc1c(-c2cnc3ccccc3c2)c2c(N)ncnc2n1C12CCC(NC(=O)c3nccs3)(CC1)C2 [Example 53]: 1.2
- C#Cc1c(-c2cnc3ccccc3c2)c2c(N)ncnc2n1C12CCC(NC(=O)c3ccco3)(CC1)C2 [Example 41]: 1.9
- C#Cc1c(-c2cnc3ccccc3c2)c2c(N)ncnc2n1C12CCC(NC(=O)c3cc(S(C)(=O)=O)ccn3)(CC1)C2 [Example 30]: 1.2

(1) C#Cc1c(-c2cnc3ccccc3c2)c2c(N)ncnc2n1C12CCC(NCc3cccnc3)(CC1)CC2 [Example 8]
(2) C#Cc1c(-c2cnc3ccccc3c2)c2c(N)ncnc2n1[C@@H]1CCN(C(=O)C=C)C1 [Comparative Example B, reference compound]
Task: API: POST /compare with 1 and 2 ; response names the item with higher IC50. // output: label of the selected item
Output: 2
(2: 97 nM, 1: 1.4 nM)
